# Tested on: waterhemp
# assay.notes: Test C pre-/postemergence herbicide test
# Format: in vivo, Amaranthus rudis
# reported.conditions: Preemergence, 31 g ai/ha; scale 0 to 100, 0 is no effect and 100 is complete control
Is Waterhemp plant response rating at least 30? Then Condition met. If not, Condition not met.

| compound | assigned.category |
| --- | --- |
| O=C1NCC(c2ccc(F)cc2)C1C(=O)Nc1ccc(F)c(F)c1F (racemic) [Compound 120] | Condition not met |
| O=C1NCC(c2ccc(C(F)(F)F)cc2)C1C(=O)Nc1cccc(F)c1F (stereo not shown) [Compound 80] | Condition not met |
| O=C1NCC(c2cc(F)cc(F)c2)C1C(=O)Nc1ccccc1Cl (racemic) [Compound 280] | Condition not met |
| O=C1NCC(c2ccc(F)c(C(F)(F)F)c2)C1C(=O)Nc1cccc(F)c1F (racemic) [Compound 77] | Condition met |
| O=C1NCC(c2ccc(C(F)(F)F)cc2)C1C(=O)Nc1ccccc1F (stereo not shown) [Compound 79] | Condition not met |
| O=C1NC[C@H](c2cccc(C(F)(F)F)c2)[C@H]1C(=O)Nc1cccc(F)c1F [Compound 206] | Condition met |

Source of measurements: patent US10294202B2
